Just for reference, paper PMC2935290 is where these values come from.

- measured_target: HLA-DPB1*0201 (Homo sapiens, UniProt P04440+P20036, A65V/A84D/A85E/K98E)
- Sequence (P04440 30-258 A65V/A84D/A85E/K98E): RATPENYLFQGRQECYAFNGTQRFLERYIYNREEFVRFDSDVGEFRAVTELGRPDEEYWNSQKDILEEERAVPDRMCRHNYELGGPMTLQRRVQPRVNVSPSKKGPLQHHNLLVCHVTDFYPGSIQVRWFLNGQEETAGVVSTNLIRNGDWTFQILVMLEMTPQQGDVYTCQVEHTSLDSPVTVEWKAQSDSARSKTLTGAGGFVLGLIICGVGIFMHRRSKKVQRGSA
- Sequence (P20036 29-260): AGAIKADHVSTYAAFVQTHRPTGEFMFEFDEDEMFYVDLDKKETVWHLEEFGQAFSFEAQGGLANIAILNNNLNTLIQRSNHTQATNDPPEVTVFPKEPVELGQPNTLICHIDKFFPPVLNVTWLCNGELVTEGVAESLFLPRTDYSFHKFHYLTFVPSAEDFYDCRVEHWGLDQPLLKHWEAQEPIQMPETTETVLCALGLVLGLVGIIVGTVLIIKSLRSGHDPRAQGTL
- protocol_notes: biochemical
- Format: binding
pIC50: −log10 of the molar value. Where no end group is shown, it is not given here.
Returns 1 (yes) if the recorded pIC50 is greater than or equal to 7, and 0 (no) otherwise.

Exercise: Could you please find out whether `RSQPGLCNMYKDSHHPARTA` has pIC50 that meets 7 or exceeds it?
Key: 0 (no)

Exercise: Check if pIC50 >= 7 (inclusive). Item: `DTLRSYYADWYQQKPG`
Key: 0 (no)

Exercise: Is it the case that `LTGYSLFQKEKMVLN` has pIC50 reaching or exceeding 7?
Key: 0 (no)

Exercise: Assess whether reported pIC50 for `NNKYAASSYLSLTPE` sits at 7 or higher.
Key: 1 (yes)
